Where do the numbers come from? From paper PMC12557367.

Molecular target: T1, nectin-4 on intact HT-1376 cells (human (endogenous in HT-1376), UniProt Q96NY8 32-510)
T1 construct: also called cellular nectin-4
T1 sequence (looked up): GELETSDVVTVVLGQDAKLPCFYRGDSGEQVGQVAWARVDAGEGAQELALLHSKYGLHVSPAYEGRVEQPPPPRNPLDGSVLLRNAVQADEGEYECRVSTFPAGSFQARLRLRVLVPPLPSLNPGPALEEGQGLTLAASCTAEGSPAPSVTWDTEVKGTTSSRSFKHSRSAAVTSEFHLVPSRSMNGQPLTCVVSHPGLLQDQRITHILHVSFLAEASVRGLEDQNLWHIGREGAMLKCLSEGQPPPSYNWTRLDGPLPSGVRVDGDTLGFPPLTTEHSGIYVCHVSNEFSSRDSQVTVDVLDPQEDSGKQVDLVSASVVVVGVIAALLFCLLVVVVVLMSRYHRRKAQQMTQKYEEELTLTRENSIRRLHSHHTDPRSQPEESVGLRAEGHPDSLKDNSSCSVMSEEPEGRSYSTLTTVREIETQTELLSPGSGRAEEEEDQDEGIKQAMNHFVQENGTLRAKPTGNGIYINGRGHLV
Experiment: radioligand binding; saturation binding on intact HT-1376 cells, 10 radioligand concentrations (0.156-80 or 0.321-160 nM), 37 °C, 1 h, PBS wash; nonspecific with 1 µM 1d; apparent (covers binding and putative internalisation)
Settings: one partner purified
Numbered stars: 1 amine (or outer) side, 2 acyl side, 3 side chain; on linkers, the order of the positions; unused ones are H or OH. Bridge positions count the residues as written; N and C are the ends. Square brackets hold non-standard residues; d marks the D form. * marks the point of attachment. (R)‑NODAGA = O=C(O)CN1CCN(CC(=O)O)CCN([C@H](CCC(=O)*)C(=O)O)CC1; DOTA = O=C(O)CN1CCN(CC(=O)O)CCN(CC(=O)*)CCN(CC(=O)O)CC1; TATA = O=C(CC[*:1])N1CN(C(=O)CC[*:2])CN(C(=O)CC[*:3])C1; Mox = methoxinine, COCC[C@H](N[*:1])C(=O)[*:2]; 1Nal = N[C@@H](Cc1cccc2ccccc12)C(=O)O; 2Nal = N[C@@H](Cc1ccc2ccccc2c1)C(=O)O; Hyp = O=C(O)[C@@H]1C[C@@H](O)CN1; hArg = N=C(N)NCCCC[C@H](N)C(=O)O
Quick reference for Kd among some binders

INSERT INTO results (binder, result) VALUES
  ('{DOTA}-CP[2Nal][dD]CMRDWSTP[Hyp]WC-NH2 (linker 1-5-15 via TATA; also: DOTA complexed with 68Ga) [[68Ga]Ga-8c]', '103 nM');

Lab note: {(R)‑NODAGA}-CP[1Nal][dD]C[Mox][hArg]DWSTP[Hyp]WC-NH2 (linker 1-5-15 via TATA; also: NODAGA complexed with 64Cu) [[64Cu]Cu-4] gave Kd of 6.06 nM

Item: {(R)‑NODAGA}-CP[2Nal][dD]CMRDWSTP[Hyp]WC-NH2 (linker 1-5-15 via TATA; also: NODAGA complexed with 64Cu) [[64Cu]Cu-8a] | Kd: 51.7 nM
